These measurements were taken from paper PMC5285354.

Test system: Klebsiella pneumoniae (ATCC 700603)
Type: cell-based
cond: ATCC 700603, 18 h
Experimental: The minimum inhibitory concentration (MIC), minimum bactericidal concentration (MBC) and minimum fungicidal concentration (MFC) were determined according to the procedure recommended by the Clinical Laboratory Standards Institute (CLSI). […] MIC was determined using a microbroth dilution method with Mueller-Hinton (MH) broth for bacteria and Sabouraud Dextrose broth for fungi (Becton Dickinson, Le Pont de Claix, France). […]
Where a SMILES comes first, the peptide text is derived from it. The star is where a group is joined. Palmitoyl = CCCCCCCCCCCCCCCC(=O)*; Myristoyl = CCCCCCCCCCCCCC(=O)*
MBC Klebsiella pneumoniae, lipopeptides without TFA counter ion by entry:
The reply should contain only the number, in µg/mL.

# example entries with known answers
compound | assayed target | number
CCCCCCCCCCCCCC(=O)N[C@@H](CCCCN)C(=O)NCC(=O)N[C@@H](CCCCN)C(N)=O [C14-KGK-NH2] (Myristoyl-Lys-Gly-Lys-NH2) | Klebsiella pneumoniae (ATCC 700603) | 64
CCCCCCCCCCCCCC(=O)N[C@@H](CCCCN)C(=O)NCC(N)=O [C14-KG-NH2] (Myristoyl-Lys-Gly-NH2) | Klebsiella pneumoniae (ATCC 700603) | 64
CCCCCCCCCCCCCC(=O)N[C@@H](CCCCN)C(=O)N[C@@H](CCCCN)C(=O)N[C@@H](CCCCN)C(=O)N[C@@H](CCCCN)C(N)=O [C14-KKKK-NH2] (Myristoyl-KKKK-NH2) | Klebsiella pneumoniae (ATCC 700603) | 128

Next up:
Problem: Record request: MBC Klebsiella pneumoniae, lipopeptides without TFA counter ion value, item CCCCCCCCCCCCCCCC(=O)N[C@@H](CCCCN)C(=O)NCC(=O)N[C@@H](CCCCN)C(N)=O [C16-KGK-NH2] (Palmitoyl-Lys-Gly-Lys-NH2)
Result: 64

* * *

Tested on: Escherichia coli (ATCC 25922)
Assay type: cell-based
cond: ATCC 25922, 18 h
Where a SMILES comes first, the peptide text is derived from it. The star is where a group is joined. Palmitoyl = CCCCCCCCCCCCCCCC(=O)*; Myristoyl = CCCCCCCCCCCCCC(=O)*
MBC Escherichia coli, lipopeptides without TFA counter ion: recorded values
The response must be a number in µg/mL with no trailing unit.

molecule | number
CCCCCCCCCCCCCCCC(=O)N[C@@H](CCCCN)C(=O)NCC(=O)N[C@@H](CCCCN)C(=O)NCC(N)=O [C16-KGKG-NH2] (Palmitoyl-KGKG-NH2) | 8
CCCCCCCCCCCCCCCC(=O)N[C@@H](CCCCN)C(=O)NCC(=O)N[C@@H](CCCCN)C(N)=O [C16-KGK-NH2] (Palmitoyl-Lys-Gly-Lys-NH2) | 4
CCCCCCCCCCCCCC(=O)N[C@@H](CCCCN)C(=O)NCC(=O)N[C@@H](CCCCN)C(N)=O [C14-KGK-NH2] (Myristoyl-Lys-Gly-Lys-NH2) | 128
CCCCCCCCCCCCCCCC(=O)N[C@@H](CCCCN)C(=O)N[C@@H](CCCCN)C(N)=O | 4
CCCCCCCCCCCCCCCC(=O)N[C@@H](CCCCN)C(=O)N[C@@H](CCCCN)C(=O)N[C@@H](CCCCN)C(=O)N[C@@H](CCCCN)C(N)=O [C16-KKKK-NH2] (Palmitoyl-KKKK-NH2) | 8

Problem: // query MBC Escherichia coli, lipopeptides without TFA counter ion value for entry CCCCCCCCCCCCCCCC(=O)N[C@@H](CCCCN)C(=O)N[C@@H](CCCCN)C(=O)N[C@@H](CCCCN)C(N)=O
Result: 8

Problem: I'd like to know its MBC Escherichia coli, lipopeptides without TFA counter ion. The molecule in question is CCCCCCCCCCCCCC(=O)N[C@@H](CCCCN)C(=O)NCC(N)=O [C14-KG-NH2] (Myristoyl-Lys-Gly-NH2)
Result: 64
